# study target: Butyrophilin subfamily 3 member A1 (Homo sapiens, UniProt O00481)
# experiment notes: Binding affinity to butyrophilin 3A1 in human Vgamma9/Vdelta2 T-cells assessed as activation of Vgamma9/Vdelta2 T-cells by upregulation of CD69 and CD25 after 18 hrs
# Sequence (O00481 whole entry): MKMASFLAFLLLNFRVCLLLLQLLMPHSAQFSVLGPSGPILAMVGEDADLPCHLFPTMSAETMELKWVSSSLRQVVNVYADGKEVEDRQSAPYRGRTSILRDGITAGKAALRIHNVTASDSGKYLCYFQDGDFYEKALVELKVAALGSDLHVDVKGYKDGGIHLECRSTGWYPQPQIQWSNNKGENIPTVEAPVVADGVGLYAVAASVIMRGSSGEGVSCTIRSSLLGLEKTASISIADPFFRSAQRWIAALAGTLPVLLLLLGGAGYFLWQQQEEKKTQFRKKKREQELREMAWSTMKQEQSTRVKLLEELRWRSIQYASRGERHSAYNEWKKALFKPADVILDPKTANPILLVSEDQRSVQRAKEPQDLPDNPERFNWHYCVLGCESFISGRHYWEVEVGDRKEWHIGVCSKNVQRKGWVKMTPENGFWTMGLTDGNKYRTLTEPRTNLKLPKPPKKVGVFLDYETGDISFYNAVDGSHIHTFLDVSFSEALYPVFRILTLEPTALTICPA
quantity name: log10 EC50 (log10 of the value in nM)
On a log10 scale: recorded EC50, unit nM.

Query :: Report log10 EC50 for C/C(=C\COP(=O)(N[C@@H](C)C(=O)OC(C)C)Oc1ccccc1)CO[Si](C)(C)C(C)(C)C (stereo not given in full) please.
Result :: 1.03

Query :: Request the reported log10 EC50 associated with C/C(=C\COP(=O)(N[C@@H](C)C(=O)OC(C)(C)C)Oc1ccccc1)CO[Si](C)(C)C(C)(C)C (stereo not given in full)
Result :: 0.95

Query :: Which measured log10 EC50 value corresponds to COC(=O)[C@H](C)NP(=O)(OC/C=C(\C)CO[Si](C)(C)C(C)(C)C)Oc1ccccc1 (stereo not given in full) ?
Result :: 0.14

Query :: Would you mind telling me what log10 EC50 value was observed for O=P(O)(O)C(O)(Cn1ccnc1)P(=O)(O)O ?
Result :: 2.69

Query :: Give the measured log10 EC50 of C/C(=C\COP(=O)(N[C@@H](C)C(=O)OCc1ccccc1)Oc1ccccc1)CO[Si](C)(C)C(C)(C)C (stereo not given in full) .
Result :: -0.35

###

# study target: Butyrophilin subfamily 3 member A1 (Homo sapiens, UniProt O00481)
# experiment notes: Binding affinity to butyrophilin 3A1 in human Vgamma9/Vdelta2 T-cells assessed as activation of Vgamma9/Vdelta2 T-cell-mediated lysis of human T24 cells preincubated for 4 hrs followed by compound washout measured after 18 hrs
# Sequence (O00481 30-513 limits assumed): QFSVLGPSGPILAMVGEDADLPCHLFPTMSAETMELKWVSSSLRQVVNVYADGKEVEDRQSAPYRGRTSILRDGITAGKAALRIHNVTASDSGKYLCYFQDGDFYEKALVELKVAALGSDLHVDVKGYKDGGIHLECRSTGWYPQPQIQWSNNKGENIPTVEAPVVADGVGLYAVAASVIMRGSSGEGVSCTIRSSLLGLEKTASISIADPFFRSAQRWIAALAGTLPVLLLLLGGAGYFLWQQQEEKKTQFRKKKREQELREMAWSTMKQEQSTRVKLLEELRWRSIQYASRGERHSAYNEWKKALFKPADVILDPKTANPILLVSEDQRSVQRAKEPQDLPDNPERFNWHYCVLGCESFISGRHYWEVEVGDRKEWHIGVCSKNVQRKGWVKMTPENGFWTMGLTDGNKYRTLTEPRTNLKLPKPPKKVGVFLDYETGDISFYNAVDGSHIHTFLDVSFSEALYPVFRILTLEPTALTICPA
quantity name: ED50 (µM)
Respond numerically; units are µM and should not be typed.

These recorded examples may help you get a feel for the data.
1) C/C(=C\COP(=O)(N[C@@H](C)C(=O)OC(C)C)Oc1ccccc1)CO[Si](C)(C)C(C)(C)C (stereo partly specified)	83.2
2) COC(=O)[C@H](C)NP(=O)(OC/C=C(\C)CO[Si](C)(C)C(C)(C)C)Oc1ccccc1 (stereo partly specified)	29.5

We now examine a further compound.
Query :: Consider the compound shown here: C/C(=C\COP(=O)(N[C@@H](C)C(=O)OCc1ccccc1)Oc1ccccc1)CO[Si](C)(C)C(C)(C)C (stereo partly specified) What is its recorded ED50?
Result :: 8.51

###

# study target: Butyrophilin subfamily 3 member A1 (Homo sapiens, UniProt O00481)
# experiment notes: Binding affinity to butyrophilin 3A1 in human Vgamma9/Vdelta2 T-cells assessed as activation of Vgamma9/Vdelta2 T-cells by measuring levels of CD69 and CD25 at 0.1 uM after 18 hrs relative to control
Documented Activity across a set of molecules
// note: answer is a bare numeric in %

Look over these answered cases.
1. C/C(=C\COP(=O)(N[C@@H](C)C(=O)OCc1ccccc1)Oc1ccccc1)CO[Si](C)(C)C(C)(C)C (some centres undefined)	50.6
2. C/C(=C\COP(=O)(N[C@@H](C)C(=O)OC(C)(C)C)Oc1ccccc1)CO[Si](C)(C)C(C)(C)C (some centres undefined)	29.9
3. COC(=O)[C@H](C)NP(=O)(OC/C=C(\C)CO[Si](C)(C)C(C)(C)C)Oc1ccccc1 (some centres undefined)	39

Query :: Report Activity for C/C(=C\COP(=O)(N[C@@H](C)C(=O)OC(C)C)Oc1ccccc1)CO[Si](C)(C)C(C)(C)C (some centres undefined) tested on Butyrophilin subfamily 3 member A1 (Homo sapiens, UniProt O00481).
Result :: 31
